The measurements presented in this section are drawn from ChEMBL document CHEMBL3102749.

tested on: Trypanosoma brucei rhodesiense; test: Trypanocidal activity against bloodstream form of Trypanosoma brucei rhodesiense STIB900 infected in NMRI mouse assessed as decrease in parasitemia at 5 mg/kg, ip qd administered for 4 days measured once per week until 60 days by microscopic analysis; assay type: functional, organism-based; set-up: dose 5 mg/kg
Calls of active or inactive are those of the source. No cut-off for these calls is given here.
Answer with one of the outcomes active, inactive

Consider the following illustrative entries.
[[record]]
structure = "Cl.Cl.N=C(N)c1cccc(-c2cc(-c3cncc(C(=N)N)c3)on2)c1"
discrete_label = "inactive"

[[record]]
structure = "Cl.Cl.Cl.N=C(N)c1ccc(-c2cc(-c3cc(C(=N)N)ccc3Cl)no2)cc1"
discrete_label = "inactive"

[[record]]
structure = "Cl.Cl.Cl.N=C(N)c1cccc(-c2cc(-c3ccc(C(=N)N)cc3Cl)no2)c1"
discrete_label = "inactive"

[[record]]
structure = "Cl.Cl.N=C(N)c1ccc(-c2cc(-c3cccc(C(=N)N)c3)no2)nc1"
discrete_label = "inactive"

[[record]]
structure = "COc1ccc(C(=N)N)cc1-c1cc(-c2ccc(C(=N)N)cc2[N+](=O)[O-])no1.Cl.Cl"
discrete_label = "active"

[[record]]
structure = "Cl.Cl.Cl.N=C(N)c1cccc(-c2cc(-c3cc(C(=N)N)ccc3Cl)on2)c1"
discrete_label = "inactive"


What did this assay record as the result for Cl.Cl.N=C(N)c1ccc(-c2cc(-c3cc(C(=N)N)ccc3[N+](=O)[O-])no2)cc1 ?
inactive

What did this assay record as the result for COc1cc(C(=N)N)ccc1-c1cc(-c2ccc(C(=N)N)cc2)on1.Cl.Cl ?
active

What did this assay record as the result for Cl.Cl.N=C(N)c1ccc(-c2cc(-c3cc(C(=N)N)ccn3)no2)cc1 ?
inactive
